Attribution: patent EP0892802B1

- assayedTarget: monoamine oxidase-A (Rattus norvegicus, UniProt P21396)
- Construct: serves as the tissue source for mitochondrial monoamine oxidase
- Sequence (P21396 1-526): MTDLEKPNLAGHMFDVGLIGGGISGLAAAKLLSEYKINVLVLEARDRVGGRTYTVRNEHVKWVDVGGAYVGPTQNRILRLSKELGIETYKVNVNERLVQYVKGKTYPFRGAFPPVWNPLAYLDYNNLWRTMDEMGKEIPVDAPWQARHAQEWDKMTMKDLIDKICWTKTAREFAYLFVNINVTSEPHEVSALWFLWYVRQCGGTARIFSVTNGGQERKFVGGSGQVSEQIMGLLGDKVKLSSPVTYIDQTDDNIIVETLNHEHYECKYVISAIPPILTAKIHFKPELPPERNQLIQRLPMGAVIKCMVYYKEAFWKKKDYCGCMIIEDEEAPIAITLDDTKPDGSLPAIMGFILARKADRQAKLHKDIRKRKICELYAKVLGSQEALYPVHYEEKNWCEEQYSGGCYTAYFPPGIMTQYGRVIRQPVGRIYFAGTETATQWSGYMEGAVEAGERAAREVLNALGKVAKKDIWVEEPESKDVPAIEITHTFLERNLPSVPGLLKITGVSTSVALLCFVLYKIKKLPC
- experiment: in vitro inhibition of monoamine oxidase assay (modified Kindt), MAO-A
- conditionsUsed: rat whole brain minus cerebellum, mitochondrial P2 pellet; substrate [3H]-5-hydroxytryptamine 200 µM; preincubated 15 minutes, incubated 30 minutes at 37°C; log-probit analysis

| compound | unitSpec | IC50 |
| --- | --- | --- |
| COc1cc(Br)c2oc(C3CCNCC3)cc2c1 [brofaromine, reference compound] | µM | 0.18 |
| COc1cccc(CN2CCC3(CCc4c3n(C)c3ccccc43)CC2)c1 | µM | 51.2 |
| COc1ccc(CN2CCC3(CCc4c3n(C)c3ccccc43)CC2)cc1 | µM | 98.6 |

----------
Endpoint: IC50. System: acetylcholinesterase (Rattus norvegicus). Items follow.
Sequence (P37136 32-614): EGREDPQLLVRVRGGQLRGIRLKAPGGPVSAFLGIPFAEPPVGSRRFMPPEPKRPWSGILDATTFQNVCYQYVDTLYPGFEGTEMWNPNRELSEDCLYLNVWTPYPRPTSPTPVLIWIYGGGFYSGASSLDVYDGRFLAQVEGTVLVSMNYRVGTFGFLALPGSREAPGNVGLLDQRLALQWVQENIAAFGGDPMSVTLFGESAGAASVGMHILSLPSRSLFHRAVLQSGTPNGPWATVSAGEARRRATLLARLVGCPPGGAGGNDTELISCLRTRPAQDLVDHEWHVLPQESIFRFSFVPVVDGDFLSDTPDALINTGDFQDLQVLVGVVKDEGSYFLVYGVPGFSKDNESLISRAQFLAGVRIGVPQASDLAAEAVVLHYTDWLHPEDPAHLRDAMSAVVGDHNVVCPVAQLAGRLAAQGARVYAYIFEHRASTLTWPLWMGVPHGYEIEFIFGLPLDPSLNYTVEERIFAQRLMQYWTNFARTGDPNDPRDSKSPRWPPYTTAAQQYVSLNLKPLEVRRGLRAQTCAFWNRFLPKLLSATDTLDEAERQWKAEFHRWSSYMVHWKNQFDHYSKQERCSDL
measuredParameter: IC50 (µM)

| testSmiles | measuredParameter | measurement |
| --- | --- | --- |
| CNC(=O)Oc1ccc2c(c1)c1c(n2C)C2(CC1)CCN(Cc1ccccc1)CC2 | IC50 | 10.5 |
| COc1ccc(CN2CCC3(CCc4c3n(C)c3ccccc43)CC2)cc1 | IC50 | 65.2 |
